test: in vitro; conditions: chlorocebus sabaeus, Vero E6 (Vero C1008) cells, pCC50
outcome-measure: log10(CC50 at 48 h) (log10 of the value in µM)
All values: log10 CC50 at 48 h [µM].

The cases that follow already have their log10(CC50 at 48 h) on record.
Cc1cc(-c2ccc(/N=N/c3ccc4c(S(=O)(=O)O)cc(S(=O)(=O)O)c(N)c4c3O)c(C)c2)ccc1/N=N/c1ccc2c(S(=O)(=O)O)cc(S(=O)(=O)O)c(N)c2c1O [EVANS BLUE FREE ACID]; 1.25
CC(C)[C@H](C(=O)Nc1ccc(C(=O)NO)cc1)c1ccccc1; -0.07
CCOC1O[C@H]([C@@H](COCc2ccccc2)OCc2ccccc2)[C@H](OCc2ccccc2)[C@H]1O (some centres not stated) [TRIBENOSIDE]; 1.24
NCC[C@H](Oc1ccc(C(F)(F)F)cc1)c1ccccc1; 1.02
NC(=O)C1(N2CCCCC2)CCN(CCCN2c3ccccc3CCc3ccccc32)CC1; 0.93

Give measured log10(CC50 at 48 h) for every item shown.
1. COc1ccc2c(c1)N(CCCN(C)C)c1ccccc1S2
2. CNCc1ccc(C)c(NC(=O)c2ccc(Nc3nc(-c4ccccc4)c4ccccc4n3)cc2)c1
3. CCN(CCO)CCCC(C)Nc1ccnc2cc(Cl)ccc12 (configuration not stated) [HYDROXYCHLOROQUINE]
4. CC(C)(C)c1ccc(CN2CCN(C(c3ccccc3)c3ccc(Cl)cc3)CC2)cc1 (configuration not stated)
5. CC(C)(C)NC[C@H](O)COc1ccccc1C1CCCC1
6. CC(=O)O[C@H]1CC[C@@]2(C)C(=CC[C@@H]3[C@@H]2CC[C@]2(C)C(c4cccnc4)=CC[C@@H]32)C1 [ABIRATERONE ACETATE]
7. O=C(NC1CN2CCC1CC2)c1cc(Cl)cc2c1OC1CCCCC21 (configuration not stated)

Result:
1. 1.15
2. 0.49
3. 1.68
4. 1.91
5. 1.47
6. 0.99
7. 1.33

Query: Can you share its log10(CC50 at 48 h)? I mean this compound: CC(Cc1ccc(O)c(O)c1)C(C)Cc1ccc(O)c(O)c1 (configuration not stated) [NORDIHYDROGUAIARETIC ACID]
Result: 1.57
